Biological target: human recombinant NK2 receptors (Homo sapiens)
Sequence (P21452 whole entry): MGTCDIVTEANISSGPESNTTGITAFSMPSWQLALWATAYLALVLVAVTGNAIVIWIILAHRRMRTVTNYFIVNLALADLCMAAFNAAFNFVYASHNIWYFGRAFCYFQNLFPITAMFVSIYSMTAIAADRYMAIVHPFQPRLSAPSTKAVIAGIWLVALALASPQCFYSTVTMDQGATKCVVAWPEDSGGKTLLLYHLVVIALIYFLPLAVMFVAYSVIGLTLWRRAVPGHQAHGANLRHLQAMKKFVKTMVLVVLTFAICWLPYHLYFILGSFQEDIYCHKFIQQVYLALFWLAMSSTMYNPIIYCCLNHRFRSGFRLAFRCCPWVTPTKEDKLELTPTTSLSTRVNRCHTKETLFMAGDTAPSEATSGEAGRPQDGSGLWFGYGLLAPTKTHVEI
Experiment: cell-based
Settings: Intracellular Ca^2+ pEC50, CHO-hNK2 cells; mean ± SD
pEC50: −log10 of the molar value. Non-standard residues stand in square brackets, D forms with d. Residues, ends and D or L forms follow the SMILES beside them. NMeL = CN[C@@H](CC(C)C)C(=O)O; Nle = CCCC[C@H](N)C(=O)O; βAla = NCCC(=O)O
outcome.measure: pEC50

compound	system.under.test	outcome.measure	val
CCCC[C@H](NC(=O)[C@H](CC(C)C)N(C)C(=O)CNC(=O)[C@@H](NC(=O)[C@H](Cc1ccccc1)NC(=O)[C@H](CCCNC(=N)N)NC(=O)[C@@H](N)CC(=O)O)C(C)C)C(N)=O [[Arg^5,MeLeu^9,Nle^10]-NKA(4-10), Asp-Arg-Phe-Val-Gly-(NMe-Leu)-Nle-NH2] (H-DRFVG[NMeL][Nle]-NH2; N-terminus assumed)	human recombinant NK2 receptors (Homo sapiens)	pEC50	10.08
CCCC[C@H](NC(=O)[C@H](CC(C)C)NC(=O)CCNC(=O)[C@@H](NC(=O)[C@H](Cc1ccccc1)NC(=O)[C@H](CCCCN)NC(=O)[C@@H](N)CC(=O)O)C(C)C)C(N)=O [[Lys^5,β-Ala^8,Nle^10]-NKA(4–10), Asp-Lys-Phe-Val-[β-Ala]-Leu-Nle-NH2] (H-DKFV[βAla]L[Nle]-NH2)	human recombinant NK2 receptors (Homo sapiens)	pEC50	8.52
CCCC[C@H](NC(=O)[C@H](CC(C)C)N(C)C(=O)CNC(=O)[C@@H](NC(=O)[C@H](Cc1ccccc1)NC(=O)[C@H](CCCCN)NC(=O)[C@@H](N)CC(=O)O)C(C)C)C(N)=O [[Lys^5,MeLeu^9,Nle^10]-NKA(4-10), Asp-Lys-Phe-Val-Gly-Leu(NMe)-Nle-NH2]	human recombinant NK2 receptors (Homo sapiens)	pEC50	9.83
